# protein stability index values compiled below
B1: EIF5 (parent)
chain: KQTIGNSCKACGYRGMLDTHHKLC

- Variants of: B1
- Protocol: protein stability index of a GFP-peptide fusion (GPS, HEK-293T) (PSI 1-6); higher = more stable;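 note: lentivirally expressed fusions sorted by FACS into six bins by GFP to DsRed ratio, PSI derived from sequencing read proportions per bin multiplied by bin number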
- Measurement setup: c terminus: a fixed tail appended
Observation type: protein stability index

Mutation code: G15A
Reading: 1.78
//
Mutation code: T19C
Reading: 3.45
//
Mutation code: D18V
Reading: 2.39
//
Mutation code: T19D
Reading: 4.48
//
Mutation code: G15H
Reading: 3.1
//
Mutation code: G12R
Reading: 2.66
//
Mutation code: S7G
Reading: 3.5
//
Mutation code: N6D
Reading: 3.63
//
Mutation code: G15C
Reading: 2.44
//
Mutation code: Q2L
Reading: 2.61
//
Mutation code: L23F
Reading: 3.64
//
Mutation code: K1M
Reading: 2.36
//
Mutation code: I4Q
Reading: 4.17
//
Mutation code: N6L
Reading: 2.96
//
Mutation code: Q2C
Reading: 3.09
//
Mutation code: H21R
Reading: 3
//
Mutation code: D18F
Reading: 2.08
//
Mutation code: K1T
Reading: 3.48
//
Mutation code: C11Y
Reading: 2.4
//
Mutation code: L17C
Reading: 4.42
//
Mutation code: S7Q
Reading: 4.08
//
Mutation code: K22Q
Reading: 2.76
//
Mutation code: K1G
Reading: 3.35
//
Mutation code: H21T
Reading: 3.17
//
Mutation code: K22N
Reading: 2.93
//
Mutation code: I4L
Reading: 3.73
//
Mutation code: Y13C
Reading: 3.61
//
Mutation code: K22A
Reading: 2.77
//
Mutation code: G12M
Reading: 2.76
//
Mutation code: K9V
Reading: 3.13
//
Mutation code: S7D
Reading: 3.83
//
Mutation code: A10V
Reading: 3.33
//
Mutation code: T3K
Reading: 3.4
//
Mutation code: K9M
Reading: 2.85
//
Mutation code: I4T
Reading: 3.29
//
Mutation code: R14Q
Reading: 3.35
//
Mutation code: C24F
Reading: 2.24
//
Mutation code: I4N
Reading: 3.63
//
Mutation code: T19K
Reading: 3.44
//
Mutation code: S7W
Reading: 2.64
//
Mutation code: K22I
Reading: 2.37
//
Mutation code: C24M
Reading: 2.81
//
Mutation code: Y13W
Reading: 2.45
//
Mutation code: K9T
Reading: 3.3
//
Mutation code: L17T
Reading: 3.91
//
Mutation code: I4V
Reading: 3.57
//
Mutation code: C11H
Reading: 1.53
//
Mutation code: K22C
Reading: 4.4
//
Mutation code: K1R
Reading: 3.18
//
Mutation code: N6E
Reading: 3.62
//
Mutation code: K22W
Reading: 2.17
//
Mutation code: S7P
Reading: 2.91
//
Mutation code: G12W
Reading: 1.78
//
Mutation code: Q2A
Reading: 3.48
//
Mutation code: K22V
Reading: 2.77
//
Mutation code: C11I
Reading: 1.52
//
Mutation code: C11L
Reading: 2.28
//
Mutation code: Q2M
Reading: 2.85
//
Mutation code: K9S
Reading: 2.88
//
Mutation code: G12I
Reading: 2.29
//
Mutation code: K1W
Reading: 3.05
//
Mutation code: R14G
Reading: 3.29
//
Mutation code: K22L
Reading: 2.65
//
Mutation code: D18A
Reading: 2.85
//
Mutation code: M16E
Reading: 4.14
//
Mutation code: G15I
Reading: 2.26
//
Mutation code: L17V
Reading: 2.6
//
Mutation code: T19N
Reading: 3.81
//
Mutation code: S7K
Reading: 3.93
//
Mutation code: G15K
Reading: 2.11
//
Mutation code: Q2D
Reading: 2.84
//
Mutation code: L17N
Reading: 3.65
//
Mutation code: R14P
Reading: 3.69
//
Mutation code: R14D
Reading: 3.41
//
Mutation code: C11S
Reading: 1.9
//
Mutation code: N6I
Reading: 3.84
//
Mutation code: Q2H
Reading: 3.6
//
Mutation code: H20Q
Reading: 2.5
//
Mutation code: Q2P
Reading: 3.5
//
Mutation code: G5Y
Reading: 2.81
//
Mutation code: C11G
Reading: 1.69
//
Mutation code: I4W
Reading: 2.82
//
Mutation code: G12A
Reading: 1.37
//
Mutation code: G5K
Reading: 3.26
//
Mutation code: H20T
Reading: 1.98
